Reference source for all entries: patent US20130230533A1

T½ for assorted binders
Target: T1, Monomeric human CD48-mmH (human)
T1 chain: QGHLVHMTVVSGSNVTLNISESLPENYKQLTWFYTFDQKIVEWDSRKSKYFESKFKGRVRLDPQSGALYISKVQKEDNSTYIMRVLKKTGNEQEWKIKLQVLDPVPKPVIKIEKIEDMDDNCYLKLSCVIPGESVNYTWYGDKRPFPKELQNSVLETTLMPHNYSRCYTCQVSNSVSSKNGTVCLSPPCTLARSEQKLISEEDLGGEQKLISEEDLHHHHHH
Test: SPR (Biacore), antibody captured by anti-Fc, CD48 in solution, 37 C
Quick note: give the figure in min, leave out the unit.

Exam item: For H2M1707N (antibody, V domains shown, Human variable domains, mouse IgG2 Fc (H2M)) VH: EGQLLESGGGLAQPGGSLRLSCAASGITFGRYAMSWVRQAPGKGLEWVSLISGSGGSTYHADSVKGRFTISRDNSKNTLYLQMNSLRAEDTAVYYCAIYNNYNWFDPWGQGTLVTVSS VL: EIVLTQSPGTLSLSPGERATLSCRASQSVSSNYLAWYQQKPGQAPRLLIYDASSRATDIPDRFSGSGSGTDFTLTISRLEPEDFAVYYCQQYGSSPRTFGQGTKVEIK , write its T½.
Marked response: 4

Exam item: Output measured T½ for this item: H3M1766N (antibody, V domains shown, Human variable domains, mouse Fc (H3M); also called H2M1766N) VH: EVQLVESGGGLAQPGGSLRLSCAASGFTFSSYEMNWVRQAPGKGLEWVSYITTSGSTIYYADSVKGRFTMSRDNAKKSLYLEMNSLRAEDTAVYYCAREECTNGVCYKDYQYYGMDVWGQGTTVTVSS VL: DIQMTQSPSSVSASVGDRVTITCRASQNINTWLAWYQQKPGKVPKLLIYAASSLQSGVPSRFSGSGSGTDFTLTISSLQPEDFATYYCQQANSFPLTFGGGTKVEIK
Marked response: 19

Exam item: Supply measured T½ of H4H1778P (antibody, human IgG4, V domains shown, Human IgG4 Fc (H4H)) VH: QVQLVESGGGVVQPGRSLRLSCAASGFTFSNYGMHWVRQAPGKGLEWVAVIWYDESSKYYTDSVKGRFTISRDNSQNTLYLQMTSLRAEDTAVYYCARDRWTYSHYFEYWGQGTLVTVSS VL: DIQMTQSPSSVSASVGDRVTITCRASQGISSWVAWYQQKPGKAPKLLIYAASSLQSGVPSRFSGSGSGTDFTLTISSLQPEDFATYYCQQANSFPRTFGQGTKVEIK in your reply.
Marked response: 102
